Cited source for all entries: ChEMBL document CHEMBL1201862

# GI50 listing for each entry below
- Test system: COLO 205
- EXPERIMENTAL DETAILS: NCI tumour cell line growth inhibition, 48 h
Calls of active or inactive are those of the source. Rule as the data show it: active = GI50 up to about 1.1 µM and inactive = higher.

• COc1ccc2c3c1O[C@H](c1ccc(O)cc1)[C@H]3[N+](C)(C)CC2 = 68.4 µM (inactive)

What measured GI50 is associated with C[C@@H]1O[C@@H]2OCC[C@@H]2C2=C1C(=O)c1ccccc1C2=O on COLO 205?
23.9 µM (inactive)

What measured GI50 is associated with COc1ccc2cc(C(=O)NCCc3ccccc3)ccc2c1OC on COLO 205?
> 100 µM (inactive)

What measured GI50 is associated with O=C1N/C(=N/N=C\C(O)C(O)C(O)CO)N/C1=C/c1ccccc1 (centres undefined) on COLO 205?
> 100 µM (inactive)

What measured GI50 is associated with CC1=C(C(=O)Nc2cc(F)c(F)cc2F)C(c2ccc3c(c2)OCO3)C(C(=O)Nc2cc(F)c(F)cc2F)=C(C)N1 on COLO 205?
21.8 µM (inactive)

What measured GI50 is associated with CCCCCC(=O)Nc1[nH]nnc1C#N on COLO 205?
> 100 µM (inactive)

What measured GI50 is associated with CC(C)(C)OC(=O)NC(CCCCNC(=O)OCc1ccccc1)C(=O)NCCNc1ccc(NCCNC(=O)C(CCCCNC(=O)OCc2ccccc2)NC(=O)OC(C)(C)C)c2c1C(=O)c1ccccc1C2=O (centres undefined) on COLO 205?
27.2 µM (inactive)
